# tgt: human glucagon receptor (human), P47871
# Sequence (P47871 26-477): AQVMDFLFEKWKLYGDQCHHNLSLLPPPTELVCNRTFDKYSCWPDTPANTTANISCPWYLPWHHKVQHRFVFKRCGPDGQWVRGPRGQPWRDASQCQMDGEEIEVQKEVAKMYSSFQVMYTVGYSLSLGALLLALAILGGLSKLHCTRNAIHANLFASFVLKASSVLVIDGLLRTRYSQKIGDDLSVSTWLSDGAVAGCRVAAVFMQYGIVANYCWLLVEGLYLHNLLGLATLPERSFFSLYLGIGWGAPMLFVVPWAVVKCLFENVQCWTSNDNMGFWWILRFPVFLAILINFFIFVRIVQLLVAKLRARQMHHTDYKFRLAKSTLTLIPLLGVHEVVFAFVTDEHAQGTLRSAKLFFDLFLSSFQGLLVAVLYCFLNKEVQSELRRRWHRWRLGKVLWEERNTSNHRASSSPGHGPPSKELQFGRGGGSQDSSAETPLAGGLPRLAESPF
# assay overview: cell-based or functional assay
*1 amine or outer side, *2 acyl side, *3 side chain or, on linkers, in order; H or OH if unused. Where no end group is shown, it is not given here. Side-chain parts run from the residue outwards. [ ]: non-standard residue; d: D form. The star is where a group is joined. C20 diacid = O=C(O)CCCCCCCCCCCCCCCCCCC(=O)*; γGlu = O=C(O)[C@H](CCC(=O)[*:2])N[*:1]; αMeL = CC(C)C[C@](C)(N)C(=O)O; αMeK = C[C@](N)(CCCCN)C(=O)O; AEEA = NCCOCCOCC(=O)O; Aib = CC(C)(N)C(=O)O
Reported cAMP EC50 (0.1% casein) is given for each of the following binders.
Respond with the bare value in nM.

binder: Y[Aib]QGTFTSDYSI[αMeL]LDKK([AEEA-AEEA-γGlu-C20 diacid])AAQAFIEYLLEGGPSSGAPPPS-NH2 [Example 6]
recorded number: 0.0282
//
binder: Y[Aib]QGTFTSDYSILLDKK([AEEA-AEEA-γGlu-C20 diacid])AQ[Aib]AFIEYLLEGGPSSGAPPPS-NH2 [Example 16]
recorded number: 0.174
//
binder: Y[Aib]QGTFTSDYSI[αMeL]LDKK([AEEA-γGlu-C20 diacid])AQHAFIEYLLEGGPSSGAPPPS-NH2 [Example 10]
recorded number: 0.123
//
binder: Y[Aib]QGTFTSDYSILLDKK([AEEA-γGlu-C20 diacid])AQ[Aib]AFIEYLLEGGPSSGAPPPS-NH2 [Example 18]
recorded number: 0.0861
//
binder: Y[Aib]QGTFTSDYSI[αMeL]LDKK([AEEA-AEEA-γGlu-C20 diacid])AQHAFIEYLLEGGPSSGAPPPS-NH2 [Example 7]
recorded number: 0.18

Now examine the next entry.
Output cAMP EC50 (0.1% casein) of Y[Aib]QGTFTSDYSI[αMeL]LDKK([AEEA-AEEA-γGlu-C20 diacid])AQ[αMeK]AFIEYLLEGGPSSGAPPPS-NH2 [Example 3]
0.152
